For each of the binders below, state its Top FACS signal.
Target: T1, human CD3 (human, UniProt P07766 23-207; P04234 22-171; P09693 23-182)
T1 construct: whole, on cells; also called hCD3; CD3 on Jurkat cells
T1 sequence (P07766 23-207, chain 1 of 3): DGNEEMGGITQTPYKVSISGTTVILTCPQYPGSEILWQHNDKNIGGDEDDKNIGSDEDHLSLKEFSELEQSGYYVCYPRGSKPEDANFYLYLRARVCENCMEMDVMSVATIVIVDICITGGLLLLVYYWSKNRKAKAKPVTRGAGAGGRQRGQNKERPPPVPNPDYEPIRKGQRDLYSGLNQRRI
T1 sequence (P04234 22-171, chain 2 of 3): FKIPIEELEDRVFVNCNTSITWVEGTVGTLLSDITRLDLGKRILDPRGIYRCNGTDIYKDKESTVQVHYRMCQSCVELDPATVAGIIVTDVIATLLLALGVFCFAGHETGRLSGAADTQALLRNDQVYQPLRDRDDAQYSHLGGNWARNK
T1 sequence (P09693 23-182, chain 3 of 3): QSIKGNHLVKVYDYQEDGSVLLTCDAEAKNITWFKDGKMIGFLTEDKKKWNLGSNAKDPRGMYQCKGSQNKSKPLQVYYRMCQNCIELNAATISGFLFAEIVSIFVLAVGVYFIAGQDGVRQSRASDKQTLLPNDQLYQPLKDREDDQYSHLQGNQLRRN
Experiment: FACS on Jurkat cells
Answers are plain numbers.

binder: hu40E9-L3H4 (antibody, V domains shown, humanized 40-C12-C10-E9) VH: EVQLVQSGAEVKKPGSSVKVSCKASGYTFSSYVIHWVRQAPGQGLEWIGYINPYNDVIKYNEKFKGRATLTSDKSTSTAYMELSSLRSEDTAVYYCARDSYYSYDGFAYWGQGTLVTVSS VL: EIVLTQSPDFQSVTPKEKVTITCSASSSVSYMHWYQQKPDQSPKRWIYDTSKLASGVPSRFSGSGSGTDYTLTINSLEAEDAATYYCQQWSSNPPTFGGGTKVEIK
Top FACS signal: 1360

binder: hu40E9-L3H2 (antibody, V domains shown, humanized 40-C12-C10-E9) VH: EVQLVQSGAEVKKPGSSVKVSCKASGYTFSSYVIHWVRQAPGQGLEWMGYINPYNDVIKYNEKFKGRVTITADKSTSTAYMELSSLRSEDTAVYYCARDSYYSYDGFAYWGQGTLVTVSS VL: EIVLTQSPDFQSVTPKEKVTITCSASSSVSYMHWYQQKPDQSPKRWIYDTSKLASGVPSRFSGSGSGTDYTLTINSLEAEDAATYYCQQWSSNPPTFGGGTKVEIK
Top FACS signal: 1410

binder: hu40E9-L2H3-N55S.H (antibody, V domains shown) VH: EVQLVQSGAEVKKPGSSVKVSCKASGYTFSSYVIHWVRQAPGQGLEWMGYINPYSDVIKYNEKFKGRVTLTSDKSTSTAYMELSSLRSEDTAVYYCARDSYYSYDGFAYWGQGTLVTVSS VL: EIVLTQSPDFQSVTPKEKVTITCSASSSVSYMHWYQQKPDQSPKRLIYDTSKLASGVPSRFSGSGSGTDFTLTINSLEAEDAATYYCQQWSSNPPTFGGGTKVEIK
Top FACS signal: 1160

binder: hu40E9-L2H3-Y102S.H (antibody, V domains shown) VH: EVQLVQSGAEVKKPGSSVKVSCKASGYTFSSYVIHWVRQAPGQGLEWMGYINPYNDVIKYNEKFKGRVTLTSDKSTSTAYMELSSLRSEDTAVYYCARDSYSSYDGFAYWGQGTLVTVSS VL: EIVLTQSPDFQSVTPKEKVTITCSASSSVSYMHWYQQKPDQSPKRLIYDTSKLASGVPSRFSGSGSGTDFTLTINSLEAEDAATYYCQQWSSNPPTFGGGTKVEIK
Top FACS signal: 1160

binder: ch40-C12-C10-E9 (antibody, V domains shown) VH: EVQLQLSGPELVKPGASVKMSCKASGYTFSSYVIHWVKQKPGQGLEWIGYINPYNDVIKYNEKFKGKATLTSDKSSSTAYMELSSLTSEDSAVYYCARDSYYSYDGFAYWGQGTLVTVSA VL: QIVLTQSPAIMSASPGEKVTMTCSASSSVSYMHWYQQKSGTSPKRWIYDTSKLASGVPARFSGSGSGTSYSLTISSMEAEDAATYYCQQWSSNPPTFGGGTKVEIK
Top FACS signal: 1620

Below are some binders; for each one, tell me its Top FACS signal.
1. hu40E9-L2H4 (antibody, V domains shown, humanized 40-C12-C10-E9) VH: EVQLVQSGAEVKKPGSSVKVSCKASGYTFSSYVIHWVRQAPGQGLEWIGYINPYNDVIKYNEKFKGRATLTSDKSTSTAYMELSSLRSEDTAVYYCARDSYYSYDGFAYWGQGTLVTVSS VL: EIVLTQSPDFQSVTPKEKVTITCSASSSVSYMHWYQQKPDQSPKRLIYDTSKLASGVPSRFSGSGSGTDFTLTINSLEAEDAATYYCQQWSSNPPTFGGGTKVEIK
2. hu40E9-L2H3-D105R.H (antibody, V domains shown) VH: EVQLVQSGAEVKKPGSSVKVSCKASGYTFSSYVIHWVRQAPGQGLEWMGYINPYNDVIKYNEKFKGRVTLTSDKSTSTAYMELSSLRSEDTAVYYCARDSYYSYRGFAYWGQGTLVTVSS VL: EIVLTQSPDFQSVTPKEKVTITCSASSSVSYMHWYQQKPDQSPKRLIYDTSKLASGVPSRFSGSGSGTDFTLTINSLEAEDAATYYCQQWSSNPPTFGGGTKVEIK
3. hu40E9-L2H3-Y101F.H (antibody, V domains shown) VH: EVQLVQSGAEVKKPGSSVKVSCKASGYTFSSYVIHWVRQAPGQGLEWMGYINPYNDVIKYNEKFKGRVTLTSDKSTSTAYMELSSLRSEDTAVYYCARDSFYSYDGFAYWGQGTLVTVSS VL: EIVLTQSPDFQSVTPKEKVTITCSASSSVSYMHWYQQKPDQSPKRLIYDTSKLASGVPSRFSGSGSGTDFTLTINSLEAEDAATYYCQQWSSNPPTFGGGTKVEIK

Solution:
1570
1480
1190

Provide Top FACS signal values for the following items, in order.
1. hu40E9-L2H3-G106A.H (antibody, V domains shown) VH: EVQLVQSGAEVKKPGSSVKVSCKASGYTFSSYVIHWVRQAPGQGLEWMGYINPYNDVIKYNEKFKGRVTLTSDKSTSTAYMELSSLRSEDTAVYYCARDSYYSYDAFAYWGQGTLVTVSS VL: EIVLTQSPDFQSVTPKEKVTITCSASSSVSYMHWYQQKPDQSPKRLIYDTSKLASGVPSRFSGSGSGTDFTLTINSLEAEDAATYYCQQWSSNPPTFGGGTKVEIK
2. hu40E9-L2H3-D105E.H (antibody, V domains shown) VH: EVQLVQSGAEVKKPGSSVKVSCKASGYTFSSYVIHWVRQAPGQGLEWMGYINPYNDVIKYNEKFKGRVTLTSDKSTSTAYMELSSLRSEDTAVYYCARDSYYSYEGFAYWGQGTLVTVSS VL: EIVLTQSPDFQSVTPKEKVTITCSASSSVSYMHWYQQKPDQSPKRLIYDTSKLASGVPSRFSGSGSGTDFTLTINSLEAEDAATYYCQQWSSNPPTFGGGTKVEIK

Solution:
1: 771; 2: 1410
